Numbers sourced from PubChem BioAssay (Tox21).

Biological target: Estrogen receptor (Homo sapiens) (UniProt P03372)
Sequence (P03372 whole entry, looked up): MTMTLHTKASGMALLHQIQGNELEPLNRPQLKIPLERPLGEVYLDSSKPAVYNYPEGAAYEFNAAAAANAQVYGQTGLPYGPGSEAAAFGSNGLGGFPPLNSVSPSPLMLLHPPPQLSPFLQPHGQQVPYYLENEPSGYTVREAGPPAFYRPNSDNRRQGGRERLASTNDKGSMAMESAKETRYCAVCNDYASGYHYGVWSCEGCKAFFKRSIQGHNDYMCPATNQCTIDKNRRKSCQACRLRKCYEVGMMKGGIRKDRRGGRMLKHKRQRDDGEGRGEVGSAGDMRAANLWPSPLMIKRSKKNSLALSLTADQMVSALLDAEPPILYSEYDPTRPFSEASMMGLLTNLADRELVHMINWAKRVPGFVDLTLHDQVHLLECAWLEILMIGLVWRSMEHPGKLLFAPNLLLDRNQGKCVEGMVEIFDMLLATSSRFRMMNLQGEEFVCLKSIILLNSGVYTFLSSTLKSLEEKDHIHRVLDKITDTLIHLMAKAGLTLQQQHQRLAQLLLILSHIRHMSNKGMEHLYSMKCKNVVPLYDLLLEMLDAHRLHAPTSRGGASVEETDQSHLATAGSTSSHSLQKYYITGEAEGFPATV
Assay: qHTS assay to identify small molecule agonists of the estrogen receptor alpha (ER-alpha) signaling pathway (AID 743075);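 note: HEK293 GripTite cells with ER-alpha and UAS-driven beta-lactamase reporter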
Settings: HEK293 ER-alpha-UAS-bla, beta-lactamase FRET ratio, 18 h; series mostly up to 70.1 µM
Active and inactive are the calls of the source. Calls come from the whole dose curve.
Would you mind answering with one of these outcomes? active, inactive

Consider the worked cases shown below.
[
  {
    "molecule": "CCCOC(=O)c1ccc(N)cc1",
    "discrete-label": "inactive"
  },
  {
    "molecule": "CCOC(=O)OCC",
    "discrete-label": "inactive"
  },
  {
    "molecule": "O=c1[nH]c2ccc(S(=O)CCN3CCC(Cc4ccc(F)cc4)CC3)cc2o1 (configuration not stated)",
    "discrete-label": "inactive"
  }
]

Exam item: What did this assay record as the result for CCCCC(CC)COC(=O)COc1ccc(Cl)cc1C (configuration not stated) ?
Marked response: inactive

Exam item: What did this assay record as the result for CCCOCCOCCO ?
Marked response: inactive

Exam item: What did this assay record as the result for CCC(Cc1ccccc1)(C(=O)c1ccc(N2CCOCC2)cc1)N(C)C (configuration not stated) ?
Marked response: active

Exam item: What did this assay record as the result for CCCCCCCCCOC(C)=O ?
Marked response: inactive

* * *

Biological target: Cytochrome P450 2C9 (Homo sapiens)
Assay: Cytochrome P450 Family 2 Subfamily C Member 9 (CYP2C9) small molecule antagonists: luciferase reporter qHTS assay (AID 1671198); note: nearly all actives have a fitted effect of over 50% in size
Conditions: P450-Glo CYP2C9 enzyme assay, luciferin luminescence; series mostly up to 115 µM
Records with an inconclusive call do not appear. Activity calls are given as the source filed them. The call rests on the fitted dose curve; in most records, active means well fitted inhibition curve with a large enough effect in the repeat runs; inconclusive means weak or mixed curves; inactive means no such curve, though single readings can be large or run the other way.
Would you mind answering with one of these outcomes? active, inactive

[
  {
    "compound": "Cc1ccc(S)cc1",
    "discrete-label": "active"
  },
  {
    "compound": "CCCc1c(OCCCOc2ccc(OCC(=O)O)cc2)ccc(C(C)=O)c1O",
    "discrete-label": "active"
  },
  {
    "compound": "CC(C)(CCl)c1ccccc1",
    "discrete-label": "inactive"
  }
]

Exam item: What did this assay record as the result for CCCCCCCCCCOS(=O)(=O)O ?
Marked response: active

Exam item: What did this assay record as the result for CCc1nn(CCCN2CCN(c3cccc(Cl)c3)CC2)c(=O)n1CCOc1ccccc1 ?
Marked response: inactive

* * *

Assay: A CellTox Green Cytotoxicity Assay to monitor cytotoxicity in HEK293 cells - 40 hour (AID 1224871); note: nearly all actives have a fitted effect of over 45% in size
Details: CellTox Green fluorescence; series mostly up to 76.8 µM
Source text: National Center for Advancing Translational Sciences [NCATS] NIH Chemical Genomics Center [NCGC] U.S. Environmental Protection Agency [EPA] National Institutes of Environmental Health Sciences [NIEHS] National Toxicology Program [NTP] Cell-based models are critical for drug discovery. […] Viable cells produce no appreciable increases in fluorescence. Therefore, the fluorescence signal produced by the binding interaction with dead cell DNA is proportional to cytotoxicity. […]
Results filed as inconclusive are left out. The source made the active and inactive calls. Calls come from the whole dose curve; as a rule, active = well fitted activation curve with a large enough effect in the repeat runs; inconclusive = weak or mixed curves; inactive = flat fitted curve, though single readings scatter.
Would you mind answering with one of these outcomes? active, inactive

Consider the worked cases shown below.
[
  {
    "molecule": "O=C(CCCN1CCN(c2ccc(F)cc2)CC1)NC1c2ccccc2CSc2ccccc21 (stereo not given)",
    "discrete-label": "inactive"
  },
  {
    "molecule": "O=C(O)c1ccc(CO)o1",
    "discrete-label": "inactive"
  },
  {
    "molecule": "CC1=CC(=O)CC(C)(C)C1(O)/C=C/C(C)=C\\C(=O)O (stereo not given)",
    "discrete-label": "inactive"
  },
  {
    "molecule": "CCOC(=O)[C@@H](C)Oc1ccc(Oc2nc3ccc(Cl)cc3o2)cc1",
    "discrete-label": "inactive"
  },
  {
    "molecule": "Cc1ccc(/C=N/n2c(-c3ccccc3)csc2=S)cc1",
    "discrete-label": "inactive"
  }
]

Exam item: What did this assay record as the result for CC(=O)OCC(=O)[C@@]12OC(C)(C)O[C@@H]1C[C@H]1[C@@H]3C[C@H](F)C4=CC(=O)C=C[C@]4(C)[C@@]3(F)[C@@H](O)C[C@@]12C ?
Marked response: active

Exam item: What did this assay record as the result for CC1(C)O[C@@H]2C[C@H]3[C@@H]4CCC5=CC(=O)C=C[C@]5(C)[C@H]4[C@@H](O)C[C@]3(C)[C@]2(C(=O)CO)O1 ?
Marked response: inactive

Exam item: What did this assay record as the result for Cc1cc(C(=C2C=CC(=Nc3ccc(S(=O)(=O)O)cc3S(=O)(=O)O)C=C2)c2ccc(Nc3ccc(S(=O)(=O)O)cc3)cc2)ccc1N ?
Marked response: inactive

Exam item: What did this assay record as the result for O=C(CCCCCCCCC#CI)Oc1ccccc1 ?
Marked response: inactive
